Cited source for all entries: patent US11730746B2

# systemTested: dog renal Na,K-ATPase (Canis lupus familiaris, UniProt P50997)
# Construct: incubated with 0.3 μg of purified dog kidney enzyme; from tissue; host or cells: dog kidney outer medulla
# protocol: Inhibition of dog renal Na,K-ATPase activity (32P-ATP release)
# Type: biochemical
pIC50 for assorted compounds
Would you please state pIC50, meaning minus log10 of the concentration in mol/L, as a bare number?

Examples from the recorded data:
1. C[C@]12CC[C@H](O)C[C@H]1CCC1C2CC[C@]2(C)[C@@H](c3csc(N=C(N)N)n3)CC[C@]12O (stereo partly shown); 5.77
2. C[C@]12CC[C@H](O)C[C@H]1CCC1C2CC[C@]2(C)[C@@H](c3cc[nH]n3)CC[C@]12O (stereo partly shown); 5.40
3. C[C@H]1O[C@@H](O[C@H]2[C@@H](O)C[C@H](O[C@H]3[C@@H](O)C[C@H](O[C@H]4CC[C@@]5(C)[C@H](CC[C@@H]6[C@@H]5C[C@@H](O)[C@]5(C)[C@@H](C7=CC(=O)OC7)CC[C@]65O)C4)O[C@@H]3C)O[C@@H]2C)C[C@H](O)[C@@H]1O [Digoxin, reference compound]; 6.52
4. C[C@]12CC[C@H](O)C[C@H]1CCC1C2CC[C@]2(C)[C@@H](/C=C/c3cc(CN)on3)CC[C@]12O (stereo partly shown); 6.48
5. C[C@]12CC[C@H](O)C[C@H]1CC[C@@H]1[C@@H]2C[C@@H](O)[C@]2(C)[C@@H](C3=CC(=O)OC3)CC[C@]12O [DIGOXIGENIN, Digoxigenin, reference compound]; 6.64
6. C[C@]12CC[C@H](O)C[C@H]1CCC1C2CC[C@]2(C)[C@@H](c3c[nH]cn3)CC[C@]12O (stereo partly shown); 6.15

For the next question, use this compound.
-- ask Hi! What's the reported pIC50 for C[C@]12[C@H](O)CC3C(CC[C@@H]4C[C@@H](O)CC[C@]34C)[C@@]1(O)CC[C@@H]2c1csc(N=C(N)N)n1 (stereo partly shown) on dog renal Na,K-ATPase (Canis lupus familiaris, UniProt P50997)?
-- reply 6.28
